# test.name: yeast display, Sf9 membrane polyspecificity reagent, FACS + sequencing; frameworks hold sequencing errors

sequence.data | polyreactivity (PSR sort gate)
QVQLVESGGGLVQAGGSLRLSCAASGFTFYRYDMGWYRQAPGKERELVAAITNNGGKTYYADSVKGRITISRDNAKYSDYLQMNSLKPVDTAVYYSAAEFYWGDLSYWGQGTQVTVSS | high polyreactivity
QVKLVESGGGLVQAGGSLRLSCAASGSIFWSYAMGWYRQAPGKEREFVPSITGSGGTTTYADSVKGRFTISLDNAKNTVYVQMNSLKPEDTAVYYCNARLHGWYHVYYIYDYWGQGTQVTVSS | low polyreactivity
QDQLEESGGGLVQAGGSLRLSCAASGFTFHINSMGWDREAPGKEREMVAAITYSGGSTYYADSVKGRFTISRDPAKNTVYLQMNCLKPEHTAVDYCATTWYFVASWFVAIYVYWGQGTQVTVSS | low polyreactivity
QVQLVESGGGLVQAGGSLRLSCAASGRTFYTNAMGWYRQAPGKERELVAAITRGGTTYYADSVKGRFTISRDNAKNTVYLQMNSLKPVDTAVYYCAADTESIVATDLIRKYDYWGQGTQVTVSS | low polyreactivity
QVQLVESGGGLVQAGCSLRLSCAASGLIFRSYAMGWYRQAPGKERELFARISIRGGSTYYADSVKGRFTISRDNAKNTVYLQMNSLKPEDTAVYYCAARPKNNWARTKYGIRYNYWGQGTQVTVSS | high polyreactivity
QVQLVESGGGLVQAGGSLRLSCAASGFTFYIYAMGWYRQAPGKERELVARISSGGRTYYADSVKGRFTISRDNAKNTVYLQMNSLKPEDTAVFDCHFWYGSWGQGTQVTVSS | low polyreactivity
QVQLVESGGGLVQAGGSLRLSCAASGRIFYPNAMGWYRQAPGQERELVAAISLSAGSTYYADSVKGRFTISRDNAKNTVSLQMNSLKPEDTAVYYCATQGNSPRGTRRYGYWGQGTQVTVSS | high polyreactivity
QVQLVESGGGLVQAGGSLRLSCAASGSNFRYNAMGWYRQAPGKERALVAAISGRGTSTYYADSVKGRFTISRDNAKNTVYLQMNSLKPEDTAVYYCAAVYFRTFLVEYYYWGQGTQVTVSS | high polyreactivity
QVQLVESGGGLVQAGGSLRLSCAASGGIFEAYVMGWYRHAPGKERELVAAISFRGGSTYYADSVKGRFTISRDNAKNTVYLQMNSLKPEDTAVYYCAADYRHQGYDYWGQGTQVTVSS | low polyreactivity
QVQLVDSGGGLVQAGGSLRLSCAASGSIFVRYTMGWYRQAAGKERELVAGIRTNGSSTYYADSVKGRFTISRDNAKNTVYLQMNSLKPEDTAVYYCAARLYRYFRQYDYWGQGTQVTVSS | low polyreactivity
QVQLVESGGGLDQAGGSLRLSCAASGSNLVSNDMGWYRQAPGKERELVAAMSWSGGSTYYADSVKGRFTISRDNAKNTVYLHMNSLKPEDTAVYYCAAGFGFLFARQELEFDYWGQGTQVTVSS | low polyreactivity

* * *

# test.name: yeast display, Sf9 membrane polyspecificity reagent, FACS + sequencing; frameworks hold sequencing errors
readout.name: polyreactivity (PSR sort gate)

sequence.data | readout.name | reported.value
QVQLVESGGGLVQAGGSLRLSCAASGSIFTGNTMGWYRQAPGKDRELVATISRRGGSTYYADSVKGRFTITRDNAKYSVYLQMNSLKPEDTAVYYCAARGPYRPPHGDAYYTYGYWGQGTQVTVSS | polyreactivity (PSR sort gate) | high polyreactivity
QVQLVESGGGLVQAGGSLRLSCAASGRTFGRYAMGWYRQAPGKERELVARIRTSGGRTYYADSVKGRFTISRDNAKYTVYLQMNSLKPEDTAVYYCATTSQPWYYWSTQGDDYWGQGTQVTVSS | polyreactivity (PSR sort gate) | low polyreactivity
QVQLVESGGGLVQAGGSLRLSCAASGRTFTRNAMGWYRQAPGKERELVAVITSSGRTNYADSVKGRFTISRDNAKNTVYLQMNSLKPEDTAVYYCNKVSARYPYPLYDYWGQGTQVTVSS | polyreactivity (PSR sort gate) | high polyreactivity
QVQLVESGGGLVQAGGSLRLSCAASGSTFGRNAMGWYRQAPGKERELVAAITASGGTTYYADSVKGRFTISRDNAKNTVYLQMNSLKPEETAVYYCARAGHFSFKYDYWGQGTQVTVSS | polyreactivity (PSR sort gate) | low polyreactivity
QVQLVESGGGLVQAGGSLRLSCAASGFIFGYNAMGWYRQAPGKERELVAAITRGGITYYADSVKGRFTISRDNAKYTVYLQMNSLKPEDTAVYYCASDWSVVYTDYDSWGHGTQVTVSS | polyreactivity (PSR sort gate) | low polyreactivity
QVQLVESGGGLVQAGGSLRLSCAASVFTFQYYAMGWYRQAPGKERELVAAISRRGGRTDYADSVKGRFTISRDNAKNTVYLQMNSLKPEDTAVYYCARDPGAFEYWGQGTQVTLSS | polyreactivity (PSR sort gate) | high polyreactivity
QVQLVESGGGLVQAGGSLRLSCAASGIIFPYYTMGGYRQAPGKERELVARITNGGRTYSADSVKGRFTISRDKAKNTVYLQMNSLKPEDTAVYYCAASWGRRKPRMDYWGQGTQVTVSS | polyreactivity (PSR sort gate) | high polyreactivity
QGQLVESGGGLVQAAGSLSLSCAASGRIYPYAMGWYRQAPGKERELVAAIPVNDGSTYYADSVTGRFTIARDNAMISVDLQMNSRKPEVSAVYYWKADYPIGWRNQYVQILYDYWGQGTQVTVSS | polyreactivity (PSR sort gate) | low polyreactivity
QVQLEESGGGLVQAGGSLRLSCAASGSTFSRYAMGWYRQAPGKERELVAAISSSGGGTYYADSVKGRFTISRDNAKNTVYLQMNSLKPEDTAVYYCAAKRVHGATGYWGQGTQVTVSS | polyreactivity (PSR sort gate) | high polyreactivity
QVQLVESGGGLVQAGGSLRFSCAASGFIFSAYAMGWYRPAPGKERELVAAITWNGGSTYYADSVKGRFTISRDNAKNTVYLQMNSLKPEDTAVYYCNAVIKQHYIKYSYWGQGTQVTVSS | polyreactivity (PSR sort gate) | high polyreactivity
QVQLVESGVGLDQAGGSLRLSCAASGSIFRRYAMGWYRQAHGKERELVAAISSNGGSTYYADSVKGRFTISRDNAKNTVYLQMNSLKPEDTAVYYCTAPPLYRDEYWGQGTQVTVAS | polyreactivity (PSR sort gate) | high polyreactivity

* * *

# test.name: yeast display, Sf9 membrane polyspecificity reagent, FACS + sequencing; frameworks hold sequencing errors

sequence.data | polyreactivity (PSR sort gate)
QVQLVESGGGLVQAGGSLRLTCAASGSIFRYYAMGWYRQAPGKERELVAAISRSGGSTYYADSVKGRFTISRDNAKNTVYLQMNSLKPEDTAVYYCAAEYRVRSQGYDYWGQGTQVTVSS | high polyreactivity
QVQLVESGGGLVQAGGSLRLSCAASGITFHRYAMGWYRQAPGKERELVAGINGRGGSTYYADSVKGRFTISRDNAKNTVYLQMNSLKPEDTAVYYCNAVYAGRYFGFDYWGQGTQVTVSS | high polyreactivity
QVQLVESGGGLVQAGGSLRLSCAASGSTFWWYAMGWYRPAPGKERELVARISNGGGTNYADSGKGRFTISRDNEKNSVFLQMNSLIPEDTAVYYCAATVGVAYYENDYWGQGTQVTVSS | low polyreactivity
QVQLVESGGGLVQAGGSLRLSCAASGSIFNYYAMGWYRQAPGKERELVAGITTSGGSTYYADSVKGRFTISRDNAKNTVYLQMNSLKPEDTAVYYCAAYDYISSTYFLDDYWGQGTQVTVSS | low polyreactivity
QVQLVESGGGLVQAGGSLRLSCAASGGIFVTYAMGWYRQAPGKERELVAAITSGGTTYYADSVKGRFTISRDNAKNTVYLQMNSLKPEDTAVYYCAADPTNSYLEYDYWGQGTQVTVSS | low polyreactivity
QVQLVESGGGLVQAGGSLRLSCAASGRIFVPYVMGWYRQAPGKERELVASISDSDTSTYYADSVKGRFTISRDNATNTVYLQMNSLKPEDTAVYYCNVDYWGQGTQVTVSS | low polyreactivity
QVQLVESGGGLVQAGGSLRLSCAASGRTFAYYAMGWYRQAPGKERELVAAITLRSGSTYYADSVKGRFTISRDNAKNTVYLQMNSLKPEDTAVYYCATDSLGVDRPNYNYWGQGTQVTVSS | low polyreactivity
QVQLVESGGGLVQAGGSLRLSCAASGRTFQLYAMGWYRQAPGKQRELVAAIRTGGSTNYADSVKGRFTISRDNAKNTVYLQMNSLKPEDTAVYYCAAVQRTDRSAHYSWGQGTQVTVSS | low polyreactivity
QVQLVESGVGLDQAGGSLRLSCAASGSIIWYYAMGWYRQAPGKERELVAAITVSGGSTYYADSVKGRFTISRDNAKNTVYLEMNTLKPEDTAVYYCAALYISLSGDEYDYWGQGTQVTVSS | low polyreactivity
QVQLVESGGGLVQAGGSLRLSCAASGSIFLWNAMGWYRQAPGKEREFVASITSRGGSTYYADSVKGRFTISRDNAKNTVYLQMNSLKPEDTAVYYCAAVRSKYLYYQGGYSSYGYWGQGTQVTVSS | high polyreactivity
QVQLVDSGGGLVQAGGSLRLSCAASGRTFYWYTMGWYRQAPGKERELVAAISTRGVRTYYADSVKGRFTISRDNAKNTVYLQMNSLKPADTAVYYCNDEYNPTYYTSHDDSDYWGQGTLVTVSS | low polyreactivity
QVQLVESGGGLVQAGGSLRLSCAASGSTFRANAMGWYRQAPGKERELVAAISWSGGRTYYADSVKGRFTISRDNAKNTVYLQMNSLKPEDTAVYYCAAVTTQYIYSVPYYYWGQGTQVTVSS | high polyreactivity
QVQIVESGGGLVQAGGSIRLSCAASGSIFYDNDMGWYRQAPAKERELVAAISWSASDTYYADSVKGRFTISRDNAKNTVYLQMNSLKPEDTAVYYCNAEVYEWYVVYSALDYWGQGTQVTVSS | low polyreactivity
QVQLVESGGGLVQAGGSLRLSCAASGFIYTSYTMGWYRQAPGKERELVAAISYRGGRTYYADSVNGRFTISRDNAKNTVYLQMNSLKPEVTAVYYCAADRVNREFDYWGQGTQVTVSS | high polyreactivity
QVQLVESGGGLVQAGGSLRLSCAASGYIFRIYAMGWYRQAPGKERELVARISSGGGTNYADSVKGRFTISRDNAKNTVYLQMNSLKPEDTAVYYCNAGYGSQRGGVFFYRMGYWGQGTQVTVSS | high polyreactivity
QVQLVESGGGLVQAGGSLRLSCAASGSIFELNAMGWYRQAPGKERELVAAITSSGSSTYYADSVKGRFTISRDNAKNTVYLQMNSLKPEDTAVYYGFRPHDYWGQGTQVTVSS | low polyreactivity
QVQLVESGGGLVQAGGSLRLSCAASGYIFKGNVMGWYRQAPGKERELVAAISSSGGRTYYADSVKWRFTISRDNAKNNVYLQMYSLKPEDTAVYYCNTKHRTKPTGPVDYWGQGTQVTVSS | high polyreactivity
QVQLVESGGGLVQAGGSLRLSCAASGRTFEWNAMGWYRQAPGKERELVAAITKRGGITYYADSVKGRFTISRDNAKNTVYLQMNSLKPEDTAVYYCAKRIVFYGRYDYWGQGTQVTVSS | high polyreactivity
QVQLVESGGGLVQAGGSLRLSCAASGYIFSLNGMGWYRQAPGKVRELVAAITVSGGRTYYADSVKGRFTISRDNAKNTVYLQMNSLKPEDTAVYYCAKRGKYSYWPYYKYDYWGQGTQVTVSS | high polyreactivity
QVQLVESGGGLVQAGGSLRLSCAASGRTFFKYAMGWYRQAPGKERELVAAITGRGGSTYADSVKGRFTISRDNAKNTVYLQMNCLKPEDTAVYYCAKVFQRGAQYYYYKYDYWGQGTQVTVSS | high polyreactivity
PVQLVESGGGLVQAGGSLRLSCAASGSTFYIYAMGWYRQAPGKERELVAAITSRGTITSYADSVKGRFTISRDNAKNTVYLQMNSLKPEDTAVYYCAADYWQDGIAYWYDYWGQGTQVTVSS | low polyreactivity
